assay: protein stability index of a GFP-peptide fusion (GPS, HEK-293T) (PSI 1-6); higher = more stable; settings: treatment: DMSO; c terminus: a fixed tail appended;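 also: 24-mer peptide tiles fused after GFP, lentivirally expressed, FACS-sorted into six equal bins by GFP/DsRed ratio, decoded by Illumina sequencing, PSI is the read-weighted mean bin number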
endpoint name: protein stability index

Solved entries (count: 2):
- sequence input: "EKMTILQTYFRQNRDEVLDNLLAF [ATP6V1G1]"
  protein stability index: 2.7
- sequence input: "DFLMCYSVAEGYYSHRETVNGSWY [CASP6]"
  protein stability index: 2.88

### Prompt Bench note: what protein stability index did VFVCRVSAVLFYVNMYVSIVFFGL [P2RY14] show?
### Response 3.36

### Prompt Bench note: what protein stability index did LNLDIGQVYKETRLFLDGEEEKEW [AASDHPPT] show?
### Response 3.95

### Prompt Bench note: what protein stability index did IEARRRALKRFVNLVARHPLFSED [SNX8] show?
### Response 2.37

### Prompt Bench note: what protein stability index did ILVTKVEEPSKYGVVVCEADTGRI [GMPPB] show?
### Response 2.75

### Prompt Bench note: what protein stability index did NSAHHCVVEVENFLFVLGGEDQWN [KLHL14] show?
### Response 2.12

### Prompt Bench note: what protein stability index did LKKKHQLLEDARRKGMPFAQWDGP [PPFIA4] show?
### Response 3.11

### Prompt Bench note: what protein stability index did TETQRLGLAMALEPNTTFLRKSLK [FANCE] show?
### Response 4.05
